measured.on: T1, cyno FcRn/b2M (cyno, UniProt Q8SPV9 24-297; Q8SPW0 21-119, biotinylated)
T1 construct: bought recombinant biotinylated protein (Immunitrack ITF05 or ACRO FCM-C82W5); also called cFcRn; cFcRn/cb2M
protocol.summary: SPR pH 7.4;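 further: surface plasmon resonance kinetics, periplasmic extracts diluted 1:10 flowed over immobilized target at 25 °C, 120 s association then 600–3600 s dissociation, buffer with 150 mM NaCl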
Give measured koff for each item. Keep answers brief.
All answers are understood in s⁻¹, so give the number only.

Exercise: // koff lookup, key: T0263018B11 S52aD (VHH, name in Kabat numbering, FLAG3-His6 tagged) VHH: EVQLVESGGGVVQPGGSLRLSCAASGFTFSSYAMYWVRQAPGKGLEWVSAISDGGGSTDYADSVKGRFTISRDNSKNTLYLQMNSLRPEDTALYYCAADTLYTSLTWYSYWGQGTLVTVSS
Solution: 0.051

Exercise: Then what about the binder T0263018B11 S56K (VHH, name in Kabat numbering, FLAG3-His6 tagged) VHH: EVQLVESGGGVVQPGGSLRLSCAASGFTFSSYAMYWVRQAPGKGLEWVSAISSGGGKTDYADSVKGRFTISRDNSKNTLYLQMNSLRPEDTALYYCAADTLYTSLTWYSYWGQGTLVTVSS ?
Solution: 0.044

Exercise: Please give the result for T0263018B11 G54L (VHH, name in Kabat numbering, FLAG3-His6 tagged) VHH: EVQLVESGGGVVQPGGSLRLSCAASGFTFSSYAMYWVRQAPGKGLEWVSAISSGLGSTDYADSVKGRFTISRDNSKNTLYLQMNSLRPEDTALYYCAADTLYTSLTWYSYWGQGTLVTVSS too.
Solution: 0.06

Exercise: Now consider T0263018B11 S100K (VHH, name in Kabat numbering, FLAG3-His6 tagged) VHH: EVQLVESGGGVVQPGGSLRLSCAASGFTFSSYAMYWVRQAPGKGLEWVSAISSGGGSTDYADSVKGRFTISRDNSKNTLYLQMNSLRPEDTALYYCAADTLYTKLTWYSYWGQGTLVTVSS and answer again.
Solution: 0.083
